Tested on: Scenedesmus acutus
Test: Phytotoxicity against Scenedesmus acutus assessed as ethane production level per ml of packed cell volume at 10 uM after 20 hr by gas chromatography
Assay type: functional
measurement-name: Activity (nmol/mL)
Provide only the numeric value, understood in nmol/mL.

# get_value(readout='Activity', item= CC(C)OC(=O)c1cc(N2C(=O)C3=C(CCCC3)C2=O)ccc1Cl ) 12

Give the measured Activity of O=c1c2c([s+]([O-])n1-c1ccc(Cl)cc1)CCCC2 (configuration not stated) . 3

Quick one: Activity for CC(C)OC(=O)c1cc(-n2sc3c(c2=O)CCCC3)ccc1Cl ? 3

Form field: reported Activity of O=C1C2=C(CCCC2)S(=O)(=O)N1c1ccc(Cl)cc1 12

Field request: Activity | item: CC(C)OC(=O)c1cc(-n2c(=O)c3c([s+]2[O-])CCCC3)ccc1Cl (configuration not stated) 3

Entry under review: O=c1c2c(sn1-c1cc(OC3CCCC3)c(Cl)cc1F)CCCC2 . Reported Activity? 0

Could you share which Activity value was measured for O=C1C2=C(CCCC2)C(=O)N1c1cc(OC2CCCC2)c(Cl)cc1F ? 12

// returns reported Activity for input O=c1c2c(sn1-c1ccc(Cl)cc1)CCCC2 7

Field request: Activity | item: CC(C)OC(=O)c1cc(N2C(=O)C3=C(CCCC3)S2(=O)=O)ccc1Cl 12

Param item = O=C1C2=C(CCCC2)S(=O)(=O)N1c1cc(OC2CCCC2)c(Cl)cc1F ; retrieve measured Activity. 3

Which measured Activity value corresponds to O=C1C2=C(CCCC2)C(=O)N1c1ccc(Cl)cc1 [CHLOROPHTHALIUM] ? 12

Please give the measured Activity for this molecule: O=c1c2c([s+]([O-])n1-c1cc(OC3CCCC3)c(Cl)cc1F)CCCC2 (configuration not stated) 0
